target: Voltage-dependent L-type calcium channel subunit alpha-1C (Homo sapiens, UniProt Q13936)
Sequence (Q13936 whole entry): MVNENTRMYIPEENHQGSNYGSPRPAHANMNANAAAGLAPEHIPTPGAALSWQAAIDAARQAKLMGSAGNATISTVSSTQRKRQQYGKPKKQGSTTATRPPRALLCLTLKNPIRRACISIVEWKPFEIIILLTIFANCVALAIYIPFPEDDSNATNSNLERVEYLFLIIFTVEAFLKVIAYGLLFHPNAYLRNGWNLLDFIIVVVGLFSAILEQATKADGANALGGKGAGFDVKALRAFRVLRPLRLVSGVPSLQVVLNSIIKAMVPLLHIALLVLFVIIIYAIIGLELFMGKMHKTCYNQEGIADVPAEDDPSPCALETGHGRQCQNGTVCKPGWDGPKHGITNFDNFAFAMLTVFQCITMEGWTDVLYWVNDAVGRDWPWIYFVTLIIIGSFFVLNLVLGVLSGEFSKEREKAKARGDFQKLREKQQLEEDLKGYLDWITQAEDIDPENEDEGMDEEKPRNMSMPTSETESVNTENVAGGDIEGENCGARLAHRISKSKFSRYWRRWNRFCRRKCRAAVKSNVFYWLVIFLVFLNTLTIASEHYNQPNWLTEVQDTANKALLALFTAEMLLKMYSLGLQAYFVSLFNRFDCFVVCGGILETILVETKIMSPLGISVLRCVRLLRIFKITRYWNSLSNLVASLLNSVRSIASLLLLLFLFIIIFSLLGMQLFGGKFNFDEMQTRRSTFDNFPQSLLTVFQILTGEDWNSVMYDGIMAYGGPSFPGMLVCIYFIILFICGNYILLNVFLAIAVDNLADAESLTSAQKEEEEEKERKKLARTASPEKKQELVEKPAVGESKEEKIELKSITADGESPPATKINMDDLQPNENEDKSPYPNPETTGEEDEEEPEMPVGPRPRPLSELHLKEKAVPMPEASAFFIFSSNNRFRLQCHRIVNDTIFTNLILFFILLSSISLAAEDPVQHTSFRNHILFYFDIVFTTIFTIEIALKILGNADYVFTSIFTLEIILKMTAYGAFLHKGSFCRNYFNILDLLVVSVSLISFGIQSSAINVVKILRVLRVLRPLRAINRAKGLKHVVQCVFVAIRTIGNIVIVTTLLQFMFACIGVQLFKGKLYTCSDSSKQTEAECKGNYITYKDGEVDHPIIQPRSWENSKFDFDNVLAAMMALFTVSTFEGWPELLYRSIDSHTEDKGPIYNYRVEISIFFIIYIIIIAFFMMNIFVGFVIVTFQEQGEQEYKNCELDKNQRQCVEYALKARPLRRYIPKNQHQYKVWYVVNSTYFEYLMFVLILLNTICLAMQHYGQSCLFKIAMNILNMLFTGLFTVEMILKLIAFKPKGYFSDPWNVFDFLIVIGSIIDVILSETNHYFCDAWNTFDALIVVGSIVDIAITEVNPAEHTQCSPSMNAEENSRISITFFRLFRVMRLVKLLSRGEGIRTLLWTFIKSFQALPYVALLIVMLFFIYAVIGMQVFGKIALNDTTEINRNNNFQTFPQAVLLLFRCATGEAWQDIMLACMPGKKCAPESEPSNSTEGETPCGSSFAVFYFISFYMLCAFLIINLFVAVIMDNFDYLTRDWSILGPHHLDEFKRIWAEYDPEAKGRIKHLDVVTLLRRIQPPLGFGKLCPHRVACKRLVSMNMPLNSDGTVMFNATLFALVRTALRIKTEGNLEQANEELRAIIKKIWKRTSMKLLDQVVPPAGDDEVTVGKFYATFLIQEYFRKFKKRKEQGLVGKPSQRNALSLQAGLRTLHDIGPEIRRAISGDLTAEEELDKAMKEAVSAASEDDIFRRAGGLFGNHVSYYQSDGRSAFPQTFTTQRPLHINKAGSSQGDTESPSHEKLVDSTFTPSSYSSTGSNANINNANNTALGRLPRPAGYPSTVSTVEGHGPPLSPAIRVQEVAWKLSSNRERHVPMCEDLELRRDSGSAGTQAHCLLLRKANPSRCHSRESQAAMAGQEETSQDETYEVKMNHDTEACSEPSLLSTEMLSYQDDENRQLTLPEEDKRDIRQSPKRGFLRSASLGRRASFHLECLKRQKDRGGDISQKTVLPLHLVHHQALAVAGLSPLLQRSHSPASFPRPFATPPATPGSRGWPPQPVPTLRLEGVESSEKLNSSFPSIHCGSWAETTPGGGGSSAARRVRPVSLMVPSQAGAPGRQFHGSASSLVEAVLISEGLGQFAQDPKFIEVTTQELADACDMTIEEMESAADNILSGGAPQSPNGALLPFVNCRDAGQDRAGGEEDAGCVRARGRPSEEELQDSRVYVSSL
measurement-protocol: Inhibition of CAV1.2 (unknown origin)
parameter-measured: IC50

Suppose we examine the molecule Cc1cc(C#N)cnc1C(=O)Nc1ccc(F)c([C@]2(C)CS(=O)(=O)[C@@](C)(C(F)F)C(=N)N2)n1 ; what IC50 value has been reported?
7.06 µM

###

measurement-protocol: Dissociation constant, pKa of compound by UV-metric spectrophotometric analysis
Format: physicochemical
# pKa listing for each entry below

Below: 2 compounds and their reported pKa.
Suppose we examine the compound C[C@@]1(c2nc(NC(=O)c3ccc(C#N)cn3)ccc2F)CS(=O)(=O)[C@@](C)(C(F)F)C(=N)N1 ; what pKa value has been reported?
6.19

Field entry: C[C@@]1(C(F)F)C(=N)N[C@](C)(c2nc(NC(=O)c3ccc(C#N)cn3)ccc2F)CS1(=O)=O
5.95

Here is the next item to consider.
Suppose we examine the compound CN1C(N)=N[C@](C)(c2cc(NC(=O)c3ccc(F)cn3)ccc2F)CS1(=O)=O ; what pKa value has been reported?
7.5

###

Test system: MDR1 (human)
measurement-protocol: Efflux ratio of apparent permeability across basolateral to apical membrane to apical to basolateral membrane in pig LLC-PK1 cells expressing human MDR1 at 1 uM
Type: ADME, cell-based, Sus scrofa
# efflux ratio at 1 µM listing for each entry below
Note: the reply should be a number with no unit written.

Suppose we examine the compound C[C@@]1(c2nc(NC(=O)c3ccc(C#N)cn3)ccc2F)CS(=O)(=O)[C@@](C)(C(F)F)C(=N)N1 ; what efflux ratio at 1 µM value has been reported?
1

Here is the next item to consider.
Suppose we examine the compound C[C@@]1(C(F)F)C(=N)N[C@](C)(c2nc(NC(=O)c3ccc(C#N)cn3)ccc2F)CS1(=O)=O ; what efflux ratio at 1 µM value has been reported?
0.8

###

measurement-protocol: Apparent permeability in pig LLC-PK1 cells
Format: ADME, cell-based, Sus scrofa
parameter-measured: Papp (×10⁻⁶ cm/s)
Numeric only. Scale: ×10⁻⁶ cm/s

Below: 2 molecules and their reported Papp.
Suppose we examine the molecule C[C@@]1(c2nc(NC(=O)c3ccc(C#N)cn3)ccc2F)CS(=O)(=O)[C@@](C)(C(F)F)C(=N)N1 ; what Papp value has been reported?
28.6

Field entry: C[C@@]1(C(F)F)C(=N)N[C@](C)(c2nc(NC(=O)c3ccc(C#N)cn3)ccc2F)CS1(=O)=O
32.7

Here is the next item to consider.
Suppose we examine the molecule CN1C(N)=N[C@](C)(c2cc(NC(=O)c3ccc(F)cn3)ccc2F)CS1(=O)=O ; what Papp value has been reported?
23

###

measurement-protocol: Free drug concentration in rat plasma
Type: ADME, cell-free
parameter-measured: fraction unbound
Note: the reply should be a number with no unit written.

Suppose we examine the molecule CN1C(N)=N[C@](C)(c2cc(NC(=O)c3ccc(F)cn3)ccc2F)CS1(=O)=O ; what fraction unbound value has been reported?
0.21

###

Tested on: MDR1 (rat)
measurement-protocol: Efflux ratio of apparent permeability across basolateral to apical membrane to apical to basolateral membrane in pig LLC-PK1 cells expressing rat MDR1 at 1 uM
Type: ADME, cell-based, Sus scrofa
parameter-measured: efflux ratio at 1 µM

Suppose we examine the molecule C[C@@]1(c2nc(NC(=O)c3ccc(C#N)cn3)ccc2F)CS(=O)(=O)[C@@](C)(C(F)F)C(=N)N1 ; what efflux ratio at 1 µM value has been reported?
8.6

Here is the next item to consider.
Suppose we examine the molecule C[C@@]1(C(F)F)C(=N)N[C@](C)(c2nc(NC(=O)c3ccc(C#N)cn3)ccc2F)CS1(=O)=O ; what efflux ratio at 1 µM value has been reported?
3.7

###

target: Beta-secretase 1 (Homo sapiens, UniProt P56817)
Sequence (P56817 whole entry): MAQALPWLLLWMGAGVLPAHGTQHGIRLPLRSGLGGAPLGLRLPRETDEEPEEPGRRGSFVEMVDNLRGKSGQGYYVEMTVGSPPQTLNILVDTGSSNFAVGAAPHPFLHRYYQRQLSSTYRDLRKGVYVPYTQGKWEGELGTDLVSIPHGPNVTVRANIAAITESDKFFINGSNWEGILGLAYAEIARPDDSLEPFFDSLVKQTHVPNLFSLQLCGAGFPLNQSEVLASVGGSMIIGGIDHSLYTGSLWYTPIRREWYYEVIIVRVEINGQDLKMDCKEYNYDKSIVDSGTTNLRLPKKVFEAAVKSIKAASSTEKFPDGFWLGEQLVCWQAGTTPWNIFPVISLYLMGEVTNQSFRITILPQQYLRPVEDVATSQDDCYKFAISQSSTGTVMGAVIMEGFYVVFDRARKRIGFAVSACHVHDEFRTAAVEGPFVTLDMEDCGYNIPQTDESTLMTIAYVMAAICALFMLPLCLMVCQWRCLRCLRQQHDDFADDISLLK
measurement-protocol: Inhibition of BACE1 (unknown origin) expressed in HEK293 cells expressing human APP with Swedish and London familial AD mutation
parameter-measured: pIC50
// pIC50 here means minus log10 of the molar concentration (mol/L)

Below: 2 compounds and their reported pIC50.
Suppose we examine the compound Cc1cc(C#N)cnc1C(=O)Nc1ccc(F)c([C@]2(C)CS(=O)(=O)[C@@](C)(C(F)F)C(=N)N2)n1 ; what pIC50 value has been reported?
8.52

Field entry: COc1cnc(C(=O)Nc2ccc(F)c([C@]3(C)CS(=O)(=O)[C@](C)(CF)C(=N)N3)c2)cn1
7.85

Continuing:
Suppose we examine the compound C[C@@]1(C(F)F)C(=N)N[C@](C)(c2nc(NC(=O)c3ccc(C#N)cn3)ccc2F)CS1(=O)=O ; what pIC50 value has been reported?
7.11

Field entry: Cc1cc(C#N)cnc1C(=O)Nc1ccc(F)c([C@]2(C)CS(=O)(=O)[C@](C)(CF)C(=N)N2)n1
8.70

Field entry: Cc1cc(C#N)cnc1C(=O)Nc1ccc(F)c([C@]2(C)CS(=O)(=O)[C@](C)(C(F)F)C(=N)N2)n1
7.96

Field entry: COc1cnc(C(=O)Nc2ccc(F)c([C@]3(C)CS(=O)(=O)[C@](C)(C(F)F)C(=N)N3)c2)cn1
6.77

Field entry: COc1cnc(C(=O)Nc2ccc(F)c([C@]3(C)CS(=O)(=O)[C@@](C)(C(F)F)C(=N)N3)c2)cn1
7.52

Field entry: C[C@@]1(c2nc(NC(=O)c3ccc(C#N)cn3)ccc2F)CS(=O)(=O)[C@@](C)(C(F)F)C(=N)N1
7.96

Field entry: C[C@@]1(c2nc(NC(=O)c3ccc(C#N)cn3)ccc2F)CS(=O)(=O)[C@](C)(CF)C(=N)N1
8.15

Field entry: COc1cnc(C(=O)Nc2ccc(F)c([C@]3(C)CS(=O)(=O)[C@@](C)(CF)C(=N)N3)c2)cn1
7.92

Field entry: C[C@]1(CF)C(=N)N[C@](C)(c2nc(NC(=O)c3ccc(C#N)cn3)ccc2F)CS1(=O)=O
8.52

Field entry: Cc1cc(C#N)cnc1C(=O)Nc1ccc(F)c([C@]2(C)CS(=O)(=O)[C@@](C)(CF)C(=N)N2)n1
9.00

###

target: Sodium channel protein type 2 subunit alpha (Homo sapiens, UniProt Q99250)
Sequence (Q99250 whole entry): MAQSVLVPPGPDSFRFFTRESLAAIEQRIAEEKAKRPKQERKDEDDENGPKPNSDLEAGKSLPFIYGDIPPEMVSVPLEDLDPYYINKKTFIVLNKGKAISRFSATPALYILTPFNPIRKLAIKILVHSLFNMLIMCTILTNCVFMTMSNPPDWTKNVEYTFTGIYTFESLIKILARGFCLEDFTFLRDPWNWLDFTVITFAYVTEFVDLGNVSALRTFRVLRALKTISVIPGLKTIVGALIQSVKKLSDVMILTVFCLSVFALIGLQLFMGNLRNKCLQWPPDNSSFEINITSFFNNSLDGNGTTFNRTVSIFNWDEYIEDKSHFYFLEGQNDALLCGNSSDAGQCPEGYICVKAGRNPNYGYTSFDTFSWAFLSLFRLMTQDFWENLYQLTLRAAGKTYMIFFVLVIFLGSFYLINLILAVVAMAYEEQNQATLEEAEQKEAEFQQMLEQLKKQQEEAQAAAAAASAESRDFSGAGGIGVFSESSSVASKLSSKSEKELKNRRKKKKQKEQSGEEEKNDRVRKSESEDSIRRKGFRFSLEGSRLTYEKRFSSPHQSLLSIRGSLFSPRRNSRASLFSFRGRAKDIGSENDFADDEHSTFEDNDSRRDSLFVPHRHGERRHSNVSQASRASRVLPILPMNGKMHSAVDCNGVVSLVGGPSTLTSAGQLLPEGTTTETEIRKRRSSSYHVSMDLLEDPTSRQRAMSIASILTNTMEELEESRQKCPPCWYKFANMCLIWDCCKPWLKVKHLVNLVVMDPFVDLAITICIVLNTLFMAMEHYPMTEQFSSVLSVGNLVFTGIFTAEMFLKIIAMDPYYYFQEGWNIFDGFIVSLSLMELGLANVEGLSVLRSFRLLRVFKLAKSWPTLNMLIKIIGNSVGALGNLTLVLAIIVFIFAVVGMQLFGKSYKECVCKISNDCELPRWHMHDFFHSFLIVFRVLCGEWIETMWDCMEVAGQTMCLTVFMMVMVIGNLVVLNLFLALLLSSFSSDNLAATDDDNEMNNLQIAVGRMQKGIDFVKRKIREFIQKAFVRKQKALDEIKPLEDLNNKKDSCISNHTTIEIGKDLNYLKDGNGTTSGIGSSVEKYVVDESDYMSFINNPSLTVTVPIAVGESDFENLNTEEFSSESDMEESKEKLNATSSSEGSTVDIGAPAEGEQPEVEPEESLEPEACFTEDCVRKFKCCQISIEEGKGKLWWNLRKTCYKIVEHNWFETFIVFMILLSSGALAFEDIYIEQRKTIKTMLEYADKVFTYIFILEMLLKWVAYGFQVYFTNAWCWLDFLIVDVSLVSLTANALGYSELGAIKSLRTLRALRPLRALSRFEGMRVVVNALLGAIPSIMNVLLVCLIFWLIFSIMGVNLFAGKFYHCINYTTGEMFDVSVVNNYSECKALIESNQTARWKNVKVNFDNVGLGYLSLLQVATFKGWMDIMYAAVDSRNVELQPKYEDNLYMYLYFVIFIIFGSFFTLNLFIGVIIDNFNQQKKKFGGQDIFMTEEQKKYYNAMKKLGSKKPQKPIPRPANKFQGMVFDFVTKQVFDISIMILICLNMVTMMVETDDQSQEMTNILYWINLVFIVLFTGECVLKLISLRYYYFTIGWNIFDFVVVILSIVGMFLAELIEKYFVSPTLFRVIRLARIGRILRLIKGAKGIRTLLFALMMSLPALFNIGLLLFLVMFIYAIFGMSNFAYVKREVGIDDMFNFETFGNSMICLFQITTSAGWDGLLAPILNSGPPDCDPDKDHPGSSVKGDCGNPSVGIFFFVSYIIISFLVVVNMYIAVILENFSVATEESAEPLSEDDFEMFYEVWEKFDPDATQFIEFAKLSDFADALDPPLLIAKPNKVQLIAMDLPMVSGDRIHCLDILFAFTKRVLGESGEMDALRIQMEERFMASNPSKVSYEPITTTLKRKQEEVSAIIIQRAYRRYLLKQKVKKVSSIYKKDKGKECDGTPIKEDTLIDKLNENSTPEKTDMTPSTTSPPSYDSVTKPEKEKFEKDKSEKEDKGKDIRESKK
measurement-protocol: Inhibition of NaV1.2 (unknown origin)
parameter-measured: IC50

Suppose we examine the compound Cc1cc(C#N)cnc1C(=O)Nc1ccc(F)c([C@]2(C)CS(=O)(=O)[C@@](C)(C(F)F)C(=N)N2)n1 ; what IC50 value has been reported?
> 30 µM

###

measurement-protocol: Free drug concentration in cynomolgus monkey plasma
Assay type: ADME, cell-free, Macaca fascicularis
parameter-measured: fraction unbound
Note: the reply should be a number with no unit written.

Suppose we examine the compound CN1C(N)=N[C@](C)(c2cc(NC(=O)c3ccc(F)cn3)ccc2F)CS1(=O)=O ; what fraction unbound value has been reported?
0.18

###

# logD listing for each entry below
measurement-protocol: Lipophilicity, log D of compound at pH 7 by HPLC analysis
Assay type: physicochemical
particulars: buffer
Note: the reply should be a number with no unit written.

Suppose we examine the compound C[C@@]1(C(F)F)C(=N)N[C@](C)(c2nc(NC(=O)c3ccc(C#N)cn3)ccc2F)CS1(=O)=O ; what logD value has been reported?
2.5

Continuing:
Suppose we examine the compound C[C@@]1(c2nc(NC(=O)c3ccc(C#N)cn3)ccc2F)CS(=O)(=O)[C@@](C)(C(F)F)C(=N)N1 ; what logD value has been reported?
2.3

###

# pKi listing for each entry below
target: Beta-secretase 1 (Homo sapiens, UniProt P56817)
// pKi here means minus log10 of the molar concentration (mol/L)

Suppose we examine the molecule Cc1cc(C#N)cnc1C(=O)Nc1ccc(F)c([C@]2(C)CS(=O)(=O)[C@@](C)(C(F)F)C(=N)N2)n1 ; what pKi value has been reported?
9.00

Continuing:
Suppose we examine the molecule COc1cnc(C(=O)Nc2ccc(F)c([C@]3(C)CS(=O)(=O)[C@](C)(C(F)F)C(=N)N3)c2)cn1 ; what pKi value has been reported?
7.92

###

measurement-protocol: Drug concentration in rat CSF at 10 mg/kg, po after 3 hrs
Assay type: ADME, organism-based, Cerebrospinal fluid
particulars: read-out: Ct
parameter-measured: concentration at 3 h (nM)
Numeric only. Scale: nM

Suppose we examine the compound C[C@@]1(c2nc(NC(=O)c3ccc(C#N)cn3)ccc2F)CS(=O)(=O)[C@@](C)(C(F)F)C(=N)N1 ; what concentration at 3 h value has been reported?
8
